Exercise: for every item that follows, state its recorded logP.
Give bare numbers.

1) C=CCN(CC=C)N=Nc1ccccc1C(=O)O : 0.62
2) CCN(CC)N=Nc1ccc(S(C)(=O)=O)cc1 : 2.6
3) CCNN=Nc1ccc(C(N)=O)cc1 : 1.19
4) CCCCN(C)/N=N/c1ccccc1C(N)=O : 3.52
5) CCCN(C)N=Nc1ccc(C(=O)O)cc1 : 0.46
6) CCCCN(C)N=Nc1ccc(C(=O)O)cc1 : 0.96
7) COc1ccc(/N=N/N(C)C)cc1 : 2.99
8) CCOC(=O)c1ccc(N=NN(C)CCO)cc1 : 2.66
9) CCN(CC)N=Nc1ccccc1C(=O)O : 1.49
10) CN(C)/N=N/c1ccc(C(F)(F)F)cc1 : 4

Hi, could you look up logP for each item in my list?
1. CN(C)/N=N/c1cccc(C(=O)O)c1
2. CCN(C)N=Nc1ccccc1C(=O)O

OUT:
1: -0.38; 2: 0.11

* * *

Field: logP. Provide a value for each of the compounds that follow.
One number for each entry.

1. CN(C)N=Nc1ccc(S(=O)(=O)Nc2ccno2)cc1 : 0.42
2. CN(Cc1ccccc1)N=Nc1ccc(C(N)=O)cc1 : 2.77
3. CN(C)/N=N/c1ccc([N+](=O)[O-])cc1 : 3.25

List reported logP for each of these compounds:
1. CCCCN(C)/N=N/c1ccc(C(N)=O)cc1
2. CNN=Nc1ccc(C(N)=O)cc1
3. COC(=O)c1ccc(/N=N/N(C)C)cc1

OUT:
1. 2.68
2. 0.48
3. 3.22

* * *

reported_endpoint: logP
Numbers only.

Answered examples (5):
1. CN(CC(F)(F)F)N=Nc1ccc(C(N)=O)cc1 : 1.86
2. CCCN(C)N=Nc1ccc(C(N)=O)cc1 : 2.17
3. CCCC(C)N(C)N=Nc1ccc(C(=O)O)cc1 (configuration not stated) : 1.35
4. CC(C)N(N=Nc1ccc(C(N)=O)cc1)C(C)C : 3
5. CCCCCN(C)N=Nc1ccc(S(=O)(=O)Nc2nccc(C)n2)cc1 : 2.34

For each of the compounds below, state logP.
1. CC(=O)N(C)N=Nc1ccc(C(N)=O)cc1
2. CN(C)/N=N/c1ccccc1C(=O)O
3. CCN(C)/N=N/c1ccc(C(N)=O)cc1
4. CCCCCN(C)N=Nc1ccc(S(=O)(=O)Nc2ccccn2)cc1
5. CCN(CC)/N=N/c1ccc(C(N)=O)cc1
6. CCN(C)/N=N/c1ccccc1C(N)=O
7. COC(=O)c1cccc(/N=N/N(C)C)c1

OUT:
1: 1.37; 2: -0.28; 3: 1.69; 4: 2.16; 5: 2.26; 6: 2.59; 7: 3.12

Provide the reported logP of each entry below, same order.
1. CN(C)/N=N/c1ccc(S(C)(=O)=O)cc1
2. CN(C)/N=N/c1ccc(S(N)(=O)=O)cc1
3. COC(=O)c1ccccc1/N=N/N(C)C

OUT:
[1.59, 0.85, 2.51]

For each listed entry, give its logP.
1. CCCCCN(C)N=Nc1ccc(C(=O)O)cc1
2. CCOC(=O)c1ccc(/N=N/N(C)C)cc1
3. CCN(CC)N=Nc1cc([N+](=O)[O-])cc([N+](=O)[O-])c1
4. CN(C)N=Nc1ccc(S(=O)(=O)CCO)cc1

OUT:
1. 1.46
2. 3.66
3. 4.69
4. 1.15

Hi there! I need logP for each item below, if you can.
1. CCN(CC)N=Nc1ccccc1C(N)=O
2. CN(C)/N=N/c1cccc(C(N)=O)c1
3. CCCCCN(C)N=Nc1ccc(C(N)=O)cc1

OUT:
1. 2.96
2. 1.3
3. 3.18
